- TARGET OR TEST SYSTEM: EPHB1 (UniProt P54762)
- Sequence (P54762 whole entry, looked up): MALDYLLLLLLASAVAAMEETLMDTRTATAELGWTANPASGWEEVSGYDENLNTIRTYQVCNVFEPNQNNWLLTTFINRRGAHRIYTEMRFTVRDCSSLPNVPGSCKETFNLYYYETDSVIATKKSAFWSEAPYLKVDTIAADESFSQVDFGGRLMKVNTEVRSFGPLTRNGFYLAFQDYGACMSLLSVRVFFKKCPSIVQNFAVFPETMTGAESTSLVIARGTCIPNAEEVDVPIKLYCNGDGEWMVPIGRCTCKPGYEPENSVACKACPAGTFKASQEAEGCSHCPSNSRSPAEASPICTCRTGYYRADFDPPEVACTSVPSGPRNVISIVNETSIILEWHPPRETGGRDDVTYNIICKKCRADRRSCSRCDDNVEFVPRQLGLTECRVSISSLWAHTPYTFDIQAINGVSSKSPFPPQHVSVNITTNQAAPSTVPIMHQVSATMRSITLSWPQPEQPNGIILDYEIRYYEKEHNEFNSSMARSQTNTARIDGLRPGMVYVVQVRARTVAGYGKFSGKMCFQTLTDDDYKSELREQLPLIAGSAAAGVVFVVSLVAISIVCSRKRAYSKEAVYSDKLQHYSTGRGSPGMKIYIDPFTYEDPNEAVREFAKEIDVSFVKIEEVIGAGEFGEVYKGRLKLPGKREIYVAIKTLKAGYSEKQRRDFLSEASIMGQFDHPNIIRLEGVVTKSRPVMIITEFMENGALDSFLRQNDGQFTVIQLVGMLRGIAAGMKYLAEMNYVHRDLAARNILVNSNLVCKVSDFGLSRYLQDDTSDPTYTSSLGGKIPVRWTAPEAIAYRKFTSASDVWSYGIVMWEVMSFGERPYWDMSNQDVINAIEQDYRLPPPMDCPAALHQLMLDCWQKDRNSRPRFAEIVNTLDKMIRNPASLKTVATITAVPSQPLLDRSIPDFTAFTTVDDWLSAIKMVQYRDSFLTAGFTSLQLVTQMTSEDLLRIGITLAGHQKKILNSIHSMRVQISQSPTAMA
- ASSAY DETAILS: phosphorylation enrichment, bacterial display (enrichment ratio); higher = better substrate or ligand; peptides without Tyr show the background;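 further: 11-residue human phosphosite peptides and single-mutation variants displayed on the E. coli surface, counted by deep sequencing, each peptide's frequency after selection divided by its frequency in the unselected input library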;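 further: frequency after pTyr selection over input frequency; kinase dosed for 20-30% of maximal phosphorylation in three min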
# class assignment by measured phosphorylation enrichment: LOW (below 0.6), MID (0.6 to below 0.8), HIGH (0.8 or more)

Worked examples, 2 sequences total:
KNSFKYFMSDD [ATRX_Y203_C200S_YF] = LOW
DTKDDYSALSV [IL17RB_Y457_N458S] = MID

Band assignment needed for DENWFYTRAAF [RPS19_Y54_S59F] please. MID

Band assignment needed for SGTYQYIIAKF [FOXL2_Y83_I80T] please. HIGH

Band assignment needed for FAELVYTSFWH [ASS1_Y322_G324S] please. HIGH

Band assignment needed for PIYEGYALPHA [ACTA1_Y171] please. HIGH

Band assignment needed for LIGRGYDDPEV [HSPA9_Y128_R127G] please. MID

Band assignment needed for HPFHVYSQPGM [BAG3_Y114_P115S] please. MID

Band assignment needed for EHTILYSNNST [KANSL1_Y223_T221I] please. LOW

Band assignment needed for PFSNSYENSLI [EPOR_Y489_P488S_YF] please. HIGH

Band assignment needed for AHAGEYGEEAL [HBA1_Y25_A27E] please. MID

Band assignment needed for KTGDFYDLFGG [PTPN11_Y63_N58K_YF] please. LOW

Band assignment needed for LLASGYDSPIN [ABLIM1_Y638_R637G] please. MID

Band assignment needed for NDQANYSLNTD [ADA_Y290] please. MID

Band assignment needed for DENRFYTRAAS [RPS19_Y54_W52R] please. LOW

Band assignment needed for EWQQIYTYDSG [JUP_Y20_T19I] please. HIGH

Band assignment needed for DLLNSYIENEG [HSPA4L_Y600] please. LOW

Band assignment needed for SSEYHCVGGFY [CTSC_Y347_Y347C] please. HIGH

Band assignment needed for IYLGAYDRFLP [SLC22A5_Y486_V481I] please. HIGH

Band assignment needed for LIHTKCPQLLP [AHCY_Y143_Y143C] please. LOW

Band assignment needed for NRLTDYYELLL [BBS10_Y536_P539L] please. HIGH

Band assignment needed for NTPNTYLRVNV [ADD2_Y440] please. LOW

Band assignment needed for RKQQLYTAMEE [CCDC39_Y593] please. MID

Band assignment needed for HDEPTYARSSK [PEAK1_Y616] please. LOW

Band assignment needed for CRAVKYLQMVR [AVPR2_Y117_G122R] please. LOW

Band assignment needed for NTSKMYIPHTD [EXPH5_Y782_D777N] please. LOW

The measured values listed here are drawn from the supplement of paper PMC10065799.
